- systemTested: LEDGF/p75 (Homo sapiens, UniProt O75475)
- Construct: histidine tag; made in house
- Sequence (O75475 whole entry): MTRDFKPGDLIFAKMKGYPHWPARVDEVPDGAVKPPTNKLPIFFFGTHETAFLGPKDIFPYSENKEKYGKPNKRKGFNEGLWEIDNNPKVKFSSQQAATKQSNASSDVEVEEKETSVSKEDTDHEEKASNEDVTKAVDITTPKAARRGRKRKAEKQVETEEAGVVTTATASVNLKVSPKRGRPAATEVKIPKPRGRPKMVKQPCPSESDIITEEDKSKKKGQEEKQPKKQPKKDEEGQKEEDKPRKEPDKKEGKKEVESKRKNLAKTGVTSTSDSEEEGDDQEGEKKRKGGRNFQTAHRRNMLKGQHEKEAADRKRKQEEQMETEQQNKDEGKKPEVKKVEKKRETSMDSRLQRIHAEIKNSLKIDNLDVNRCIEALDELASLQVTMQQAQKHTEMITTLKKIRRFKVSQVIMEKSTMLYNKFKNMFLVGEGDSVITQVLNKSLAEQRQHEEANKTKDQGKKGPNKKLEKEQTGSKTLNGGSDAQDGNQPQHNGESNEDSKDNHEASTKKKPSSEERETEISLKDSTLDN
- measurementDescription: ELISA binding of peptides to LEDGF/p75
- recordedConditions: apparent Kd according to ELISA using LEDGF and BSA alone as control; peptide-coated plates, room temperature, OD 490 nm, duplicate
Where no end group is shown, it is not given here.
measurementLabel: pKd
Scale note: pKd = -log10(concentration in M).

Tell me its pKd given WTAVQMAVFIHNFKRK [INS] as the entry. 5.66
